- System: HOP-18
- Protocol Summary: NCI tumour cell line growth inhibition, 48 h
The source made the active and inactive calls. Rule as the data show it: active = GI50 up to about 1.1 µM and inactive = higher.
Result category, one only: active, inactive

> print(dat)
                                   molecule  experimental.system       cat
1  CNC(=O)OCc1nccc2c(C)c3[nH]c4ccc(OC)cc4c3cc12               HOP-18  inactive
2  CCOC(=O)C1S/C(=N\c2ccc(C)c(C)c2)N=C1C (stereo not given)               HOP-18  inactive
3  CC(=O)N[C@@H]1C(O)CN2C(=O)C(=O)O[C@H](C(O)CO)[C@@H]12 (stereo not given in full)               HOP-18  inactive
4  COc1ccc(S(=O)(=O)c2ccccc2[N+](=O)[O-])cc1               HOP-18  inactive
5  CCCCCCCCCCCCCCCCCC(=O)OCC1OC(OC)C(NC(=O)N(CCCl)N=O)C(O)C1O (stereo not given)               HOP-18  inactive

Kindly provide the recorded test outcome for the following molecule: "Cc1c(C2=NN=C(/N=N/c3c(O)cccc3O)/C2=C/c2ccccc2)c(=O)n(-c2ccccc2)n1C"
inactive

What classification did "O=C1c2cccc3cccc(c23)C(=O)N1CCN(CCO)CCO" end up with in this test?
inactive

Per the assay record, what outcome was assigned to "COc1cc(/C=C(\C#N)C(N)=O)cc(Br)c1O" ?
inactive

For COC(=O)C1=CC2C=CC(C1C(=O)OC)C1C(C(=O)OC)=C(C(=O)OC)C(C(=O)OC)=C(C(=O)OC)C21OC (stereo not given) , which call appears in the assay record?
inactive

How was "CCN(CC)CCCNc1nccc2c(C)c3[nH]c4ccncc4c(=O)c3cc12" classified in this test?
inactive

These entries and their values trace back to ChEMBL document CHEMBL1201862.
